Tested on: Aspergillus fumigatus
Assay: checkerboard drug interaction (FICI, MICc);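 also: simplified diagonal checkerboard screen pairing antifungals with FPPS inhibitors against Aspergillus fumigatus, with FICI calculated under the Loewe additivity model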
Type: cell-based
Conditions: MIC of the inhibitor in combination with ketoconazole
metric name: INH MICc (KET:INH)

Worked examples follow.
>>> result("CCCCCCCCCCN1CCC[C@H]1C(=O)N[C@H](CC(=O)OC)C(=O)OC")
32
>>> result("CCCCCCCCCN1CCC[C@H]1C(=O)N[C@H](CC(=O)O)C(=O)O")
128
>>> result("CCCCCCCCCN1CCC[C@H]1C(=O)N[C@H](CC(=O)OC)C(=O)OC")
128

Q) Look up INH MICc (KET:INH): CCCCCCCCCCCCN1CCC[C@H]1C(=O)N[C@H](CC(=O)OC)C(=O)OC
A) 128

Q) # lookup: INH MICc (KET:INH) of CCCCCCCCCCCN1CCC[C@H]1C(=O)N[C@H](CC(=O)O)C(=O)O
A) 128

Q) // lookup INH MICc (KET:INH) for CCCCCCCCCCCCN1CCC[C@H]1C(=O)N[C@H](CC(=O)O)C(=O)O
A) 128

Attribution: paper PMC12892976
